Where do these numbers come from? They come from paper PMC4232785.

- test-protocol: RP-HPTLC retention (RM0, lipophilicity parameter) on RP-18W/UV254 plates
- Format: physicochemical
- measurement-context: RP-18W/UV254, methanol – water (φ = 0.65 - 0.95)
- Experimental: Precoated RP-18W/UV254 plates (Macherey-Nagel GmbH and Co., Düren, Germany) were used for RP HPTLC analysis. […] The investigated compounds were dissolved in an appropriate solvent, methanol, 1 mg mL^-1) and the solutions (0.2 μL) were separately spotted into the plates. […] RF values were calculated as average from three measurements for each solute-mobile phase combination. For subsequent calculations mean RM values were used; these were calculated by using the formula: […]
recorded-metric: RM^0 (retention parameter, intercept at φ = 0% modifier)

Below, 5 compounds whose answers are already recorded.
compound: CC(Nc1nc(Cl)nc(NC(C)c2ccc(Cl)cc2)n1)c1ccc(Cl)cc1 (stereo not shown)
test-result: 3.976
--
compound: CC1(Nc2nc(Cl)nc(NC3(C)CCCCCC3)n2)CCCCCC1
test-result: 4.530
--
compound: CC(Nc1nc(Cl)nc(NC(C)c2ccccc2)n1)c1ccccc1 (stereo not shown)
test-result: 2.457
--
compound: Clc1nc(NC2CCCCC2)nc(N(c2ccccc2)C2CCCCC2)n1
test-result: 3.980
--
compound: CC1(Nc2nc(Cl)nc(Cl)n2)CCCCCC1
test-result: 1.756

I. CC1(Nc2nc(Cl)nc(Cl)n2)CCCC1
II. Cc1ccc(C(C)Nc2nc(Cl)nc(NC(C)c3ccc(C)cc3)n2)cc1 (stereo not shown)
III. Clc1nc(N(c2ccccc2)C2CCCCC2)nc(N(c2ccccc2)C2CCCCC2)n1
## Input // ascending sort on recorded RM^0 (retention parameter, intercept at φ = 0% modifier) Please respond by ranking the labels in the order requested.
## Output I, II, III
(I: 1.526, II: 3.188, III: 5.295)

----------
- test-protocol: RP-HPTLC retention (RM0, lipophilicity parameter) on RP-18W/UV254 plates
- Type: physicochemical
- measurement-context: RP-18W/UV254, acetonitrile – water (φ = 0.5 - 0.9)
recorded-metric: RM^0 (retention parameter, intercept at φ = 0% modifier)

Below, 5 molecules whose answers are already recorded.
molecule: CC1(Nc2nc(Cl)nc(NC3(C)CCCCC3)n2)CCCCC1
test-result: 2.753

molecule: CC(Nc1nc(Cl)nc(NC(C)c2ccc(Cl)cc2)n1)c1ccc(Cl)cc1 (centres unmarked)
test-result: 2.887

molecule: Clc1nc(NC2CCCCC2)nc(NC2CCCCC2)n1
test-result: 2.356

molecule: CN(c1nc(Cl)nc(N(C)C2CCCCC2)n1)C1CCCCC1
test-result: 3.284

molecule: Clc1nc(NC2CCCCC2)nc(N(c2ccccc2)C2CCCCC2)n1
test-result: 3.101

I. CC1(Nc2nc(Cl)nc(Cl)n2)CCCCCC1
II. Clc1nc(N(c2ccccc2)C2CCCCC2)nc(N(c2ccccc2)C2CCCCC2)n1
## Input Between item I and item II , which reported RM^0 (retention parameter, intercept at φ = 0% modifier) is smaller? I would appreciate it if you answered with the label of your choice.
## Output I

----------
- test-protocol: RP-HPTLC retention (RM0, lipophilicity parameter) on RP-18W/UV254 plates
- Type: physicochemical
- measurement-context: RP-18W/UV254, acetone – water (φ = 0.5 - 0.8)
recorded-metric: RM^0 (retention parameter, intercept at φ = 0% modifier)

compound: CN(c1nc(Cl)nc(N(C)C2CCCCC2)n1)C1CCCCC1
test-result: 4.626
--
compound: CC(Nc1nc(Cl)nc(NC(C)c2ccc(Br)cc2)n1)c1ccc(Br)cc1 (stereo not shown)
test-result: 4.303
--
compound: CC(Nc1nc(Cl)nc(NC(C)c2ccccc2)n1)c1ccccc1 (stereo not shown)
test-result: 3.185
--
compound: CC1(Nc2nc(Cl)nc(Cl)n2)CCCCCC1
test-result: 2.257
--
compound: CC1(Nc2nc(Cl)nc(NC3(C)CCCCCC3)n2)CCCCCC1
test-result: 4.218
--
compound: CC1(Nc2nc(Cl)nc(NC3(C)CCCCC3)n2)CCCCC1
test-result: 3.935
--
compound: Clc1nc(N(c2ccccc2)C2CCCCC2)nc(N(c2ccccc2)C2CCCCC2)n1
test-result: 4.693
--
compound: Clc1nc(NC2CCCCC2)nc(NC2CCCCC2)n1
test-result: 4.118

1. CC(Nc1nc(Cl)nc(NC(C)c2ccc(Cl)cc2)n1)c1ccc(Cl)cc1 (stereo not shown)
2. CC1(Nc2nc(Cl)nc(Cl)n2)CCCC1
## Input Between item 1 and item 2 , which reported RM^0 (retention parameter, intercept at φ = 0% modifier) is smaller? I would appreciate it if you answered with the label of your choice.
## Output 2
